# Measurement description: Fraction unbound in Wistar Han rat white adipose tissue at 2 uM incubated for 6 hrs by equilibrium dialysis method
Assign fraction unbound at 6 h, 2 µM to each entry below.

For the molecule shown here, COCCCN1C[C@H](C)N(C(=O)N2Cc3c(NC(=O)c4ccccn4)n[nH]c3C2(C)C)C[C@H]1C , give the reported fraction unbound at 6 h, 2 µM.
0.329

For the molecule shown here, Nc1noc2ccc(-c3cc(Cl)ccc3Oc3cc(F)c(S(=O)(=O)Nc4cscn4)cc3F)cc12 , give the reported fraction unbound at 6 h, 2 µM.
0.0123

For the molecule shown here, CCCC(Oc1ccc(-n2cc3ccccc3n2)cc1)c1ccc(C(=O)NCCC(=O)O)cc1 (stereo not drawn) , give the reported fraction unbound at 6 h, 2 µM.
0.105

For the molecule shown here, COc1cc(/C=C2\CCCN([C@@H](C)c3ccc(F)cc3)C2=O)ccc1-n1cnc(C)c1 , give the reported fraction unbound at 6 h, 2 µM.
0.00185

For the molecule shown here, C[C@H](CN1CCOCC1)n1/c(=N\C(N)=O)[nH]c2cc(/C=C3\c4ccccc4COc4cc(F)ccc43)ccc21 [LY2623091] , give the reported fraction unbound at 6 h, 2 µM.
0.000192

For the molecule shown here, O=C(c1cccc(N2CCNCC2)n1)N1CCC(c2ccccc2F)CC1 , give the reported fraction unbound at 6 h, 2 µM.
0.393

For the molecule shown here, COc1cc2c(OC[C@H]3NC(=O)[C@@H]4C[C@]34C)nccc2cc1C(N)=O , give the reported fraction unbound at 6 h, 2 µM.
0.803

For the molecule shown here, Cc1ccc(NC(=O)c2cc(Oc3ccc(S(C)(=O)=O)cc3)c3c(c2)OC(C)(C)C3)nc1 , give the reported fraction unbound at 6 h, 2 µM.
0.00216

The reported numbers originate from ChEMBL document CHEMBL4373746.
